Recorded values, source ChEMBL document CHEMBL1671815.

Biological target: Bifunctional epoxide hydrolase 2 (Rattus norvegicus)
Sequence (P80299 whole entry): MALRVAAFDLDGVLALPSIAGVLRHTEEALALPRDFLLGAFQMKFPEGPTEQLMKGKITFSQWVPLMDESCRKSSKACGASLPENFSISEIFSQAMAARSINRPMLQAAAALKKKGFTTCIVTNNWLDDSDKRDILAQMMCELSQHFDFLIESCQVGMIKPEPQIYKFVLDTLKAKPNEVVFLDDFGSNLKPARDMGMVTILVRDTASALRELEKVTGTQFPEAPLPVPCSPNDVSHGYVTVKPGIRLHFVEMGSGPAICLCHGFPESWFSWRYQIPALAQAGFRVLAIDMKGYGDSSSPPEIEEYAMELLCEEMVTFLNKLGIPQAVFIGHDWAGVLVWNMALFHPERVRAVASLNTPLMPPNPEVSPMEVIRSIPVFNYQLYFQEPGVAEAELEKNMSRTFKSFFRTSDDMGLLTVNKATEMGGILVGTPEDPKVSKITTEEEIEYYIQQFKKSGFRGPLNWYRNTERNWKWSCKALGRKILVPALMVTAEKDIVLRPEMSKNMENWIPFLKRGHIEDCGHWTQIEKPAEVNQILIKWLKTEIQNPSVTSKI
Test: Inhibition of rat soluble epoxide hydrolase in cell free system
Metric: log10(IC50) (log10 of the value in nM)

{"Molecule": "Cc1nc2cc(NC(=O)N[C@H]3C[C@@H]3c3ccccc3)ccc2o1 (racemic)", "Measured on": "Bifunctional epoxide hydrolase 2 (Rattus norvegicus)", "Metric": "log10(IC50)", "Recorded number": 1.30}
{"Molecule": "O=C(NC1CCN(c2ccccc2)CC1)N[C@H]1C[C@@H]1c1ccccc1 (racemic)", "Measured on": "Bifunctional epoxide hydrolase 2 (Rattus norvegicus)", "Metric": "log10(IC50)", "Recorded number": 0.23}
{"Molecule": "CC(C)c1noc(C2CCN(C(=O)N[C@H]3C[C@@H]3c3ccccc3)CC2)n1 (racemic)", "Measured on": "Bifunctional epoxide hydrolase 2 (Rattus norvegicus)", "Metric": "log10(IC50)", "Recorded number": 1.11}
{"Molecule": "COc1cccc2c1CC(C(=O)N[C@H]1C[C@@H]1c1ccccc1)CC2 (mixture of isomers)", "Measured on": "Bifunctional epoxide hydrolase 2 (Rattus norvegicus)", "Metric": "log10(IC50)", "Recorded number": 0.48}
{"Molecule": "O=C(N[C@H]1C[C@@H]1c1ccccc1)c1ccc2nonc2c1 (racemic)", "Measured on": "Bifunctional epoxide hydrolase 2 (Rattus norvegicus)", "Metric": "log10(IC50)", "Recorded number": 2.38}

====

Molecular target: Bifunctional epoxide hydrolase 2 (Homo sapiens)
Sequence (P34913 whole entry): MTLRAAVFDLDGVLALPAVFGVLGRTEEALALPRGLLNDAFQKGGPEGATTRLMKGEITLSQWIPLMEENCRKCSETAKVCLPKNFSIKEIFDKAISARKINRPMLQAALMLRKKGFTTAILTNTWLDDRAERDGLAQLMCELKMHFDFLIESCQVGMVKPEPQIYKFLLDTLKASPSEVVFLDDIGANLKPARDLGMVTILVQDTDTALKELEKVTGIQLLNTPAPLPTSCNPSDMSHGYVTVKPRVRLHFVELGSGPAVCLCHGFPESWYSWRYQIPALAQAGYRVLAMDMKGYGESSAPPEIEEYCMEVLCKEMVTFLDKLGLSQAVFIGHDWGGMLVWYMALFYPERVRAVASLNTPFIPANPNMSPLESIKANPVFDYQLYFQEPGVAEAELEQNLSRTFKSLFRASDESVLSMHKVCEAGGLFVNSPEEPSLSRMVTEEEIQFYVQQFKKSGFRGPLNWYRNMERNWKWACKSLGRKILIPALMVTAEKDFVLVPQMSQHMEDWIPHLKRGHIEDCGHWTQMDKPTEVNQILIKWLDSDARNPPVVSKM
Assay: Inhibition of human soluble epoxide hydrolase in cell free system
pIC50: −log10 of the molar value.
We begin with a simple list: items and their reported pIC50.

{"Molecule": "COc1cccc2c1CC(C(=O)N[C@H]1C[C@@H]1c1ccccc1)CC2 (mixture of isomers)", "Measured on": "Bifunctional epoxide hydrolase 2 (Homo sapiens)", "pIC50": 8.19}
{"Molecule": "Cc1nc2cc(NC(=O)N[C@H]3C[C@@H]3c3ccccc3)ccc2o1 (racemic)", "Measured on": "Bifunctional epoxide hydrolase 2 (Homo sapiens)", "pIC50": 7.40}
{"Molecule": "CN(C)c1ccc(CNC(=O)N[C@H]2C[C@@H]2c2ccccc2)cc1 (racemic)", "Measured on": "Bifunctional epoxide hydrolase 2 (Homo sapiens)", "pIC50": 7.52}
{"Molecule": "O=C(N[C@H]1C[C@@H]1c1ccccc1)c1ccc2nonc2c1 (racemic)", "Measured on": "Bifunctional epoxide hydrolase 2 (Homo sapiens)", "pIC50": 7.21}
{"Molecule": "O=C(NC1CCN(c2ccccc2)CC1)N[C@H]1C[C@@H]1c1ccccc1 (racemic)", "Measured on": "Bifunctional epoxide hydrolase 2 (Homo sapiens)", "pIC50": 8.64}
